Ref: PubChem BioAssay AID624416

What inhibition was measured for each of the following?
- Tested on: HIV-1 gp120 / PG9 antibody interaction
- Test Summary: binders of HIV-1 gp120 antibody PG9, primary screen, biochemical, TR-FRET (AID 624416)
- Experimental Conditions: TR-FRET gp120-PG9 antibody binding; at 6.7 µM; active compounds read high
About 1,500 (0.42%) of roughly 360,000 compounds were called active. The sample holds actives, similar compounds and a random draw of the others, so the mix is not that of the screen.
Numbers only, in %.

Go through the items and report each one's inhibition.
1. Cc1cc(NCCc2c[nH]c3ccccc23)ccc1Oc1cccnc1
2. CCc1c(-c2ccccc2OC)ncn1CCc1ccccc1OC
3. Cc1ccc(-n2c(SCC(=O)NCCC3=CCCCC3)nc3n[nH]c(C)c3c2=N)cc1Cl
4. CCOc1ccc(C(=O)COC(=O)c2ccc(-n3cnnn3)cc2)cc1

1. 0.39
2. 0.74
3. 35.7
4. 11.4
